TARGET ENTITY: serotonin (5-HT) reuptake (Rattus norvegicus)
Construct: synaptosomes are freshly isolated from areas of the rat brain; from tissue; host or cells: rat brain synaptosomes (P2 fraction)
PROTOCOL SUMMARY: Inhibition of serotonin (5HT) reuptake in synaptosomes from rat brain
Assay type: biochemical
CONDITION DESCRIPTION: test concentration of 10 μM
EXPERIMENTAL ENDPOINT: 5-HT (inhibition of reuptake of serotonin, % inhibition) (%)
// units = %; emit number, no label

Examples with answers:
COMPOUND | VALUE
COc1ccc(S(=O)(=O)N2CCCCC2COCC(=O)NC2CCC(C(c3ccc(F)cc3)N(C)C)CC2)c(OC)c1 (stereo not shown) | 86
COc1cc(C)c(S(=O)(=O)N2CCC(OCC(=O)NCCC3CCC(C(c4cccc(F)c4)N(C)C)CC3)C2)c(C)c1C (stereo not shown) | 96
CN(C)C(c1ccc(F)cc1)C1CCC(NC(=O)COCC2CCCN(S(=O)(=O)c3ccccc3)C2)CC1 (stereo not shown) | 97
COc1ccc(S(=O)(=O)N2Cc3ccccc3CC2COCC(=O)NC2CCC(C(c3ccc(F)cc3)N(C)C)CC2)cc1 (stereo not shown) | 95
CN(C)C(c1cccc(F)c1)C1CCC(NC(=O)COC2CCCN(S(=O)(=O)c3ccccc3)C2)CC1 (stereo not shown) | 93
CN(C)C(c1ccc(Cl)cc1)C1CCC(CNC(=O)COCCC2CCN(S(=O)(=O)c3ccccc3)CC2)CC1 (stereo not shown) | 64

-- ask Could you tell me which 5-HT (inhibition of reuptake of serotonin, % inhibition) is on file for CN(C)C(c1cccc(F)c1)C1CCC(CNC(=O)COCCC2CCN(S(=O)(=O)c3ccccc3)CC2)CC1 (stereo not shown) ?
-- reply 84

* * *

TARGET ENTITY: human bradykinin 1 receptor (B1R) (Homo sapiens)
Construct: expressed in transfected cells; host or cells: CHO K1 cells
PROTOCOL SUMMARY: Functional investigation on the human bradykinin 1 receptor (B1R), Ca2+ FLIPR assay in CHO K1 hB1R cells
Format: cell-based
CONDITION DESCRIPTION: CHO-K1, B1R antagonism human; test substance 10 μM; Ca2+ FLIPR, CHO K1 hB1R cells; read-out: B1R Ant. h [10 μM] % Inhibition
EXPERIMENTAL ENDPOINT: inhibition at 10 µM
Mention the unit after the number when you answer.

Some solved entries appear below for comparison.
COMPOUND | inhibition at 10 µM
CN(CCOCC(=O)NC1CCC(C(CCc2ccccc2)N2CCOCC2)CC1)S(=O)(=O)c1c(Cl)cc(Cl)cc1Cl (stereo not shown) [Example 636] | 41%
CN(C)C(c1ccccc1)C1CCC(NC(=O)COCCC2CCN(S(=O)(=O)c3ccccc3)CC2)CC1 (stereo not shown) [Example 124] | 9%
COc1cc(C)c(S(=O)(=O)N2CCCC(OCC(=O)NCCC3CCC(C(c4cccs4)N(C)C)CC3)C2)c(C)c1C (stereo not shown) [Example 130] | 30%

Proceeding to the next compound to report its inhibition at 10 µM.
-- ask Form entry - test system: human bradykinin 1 receptor (B1R) (Homo sapiens); read-out: inhibition at 10 µM; compound: CN(C)C(c1cccs1)C1CCC(CNC(=O)COC2CCN(S(=O)(=O)c3cccc(C(F)(F)F)c3)C2)CC1 (stereo not shown) [Example 25]
-- reply -6%

* * *

TARGET ENTITY: human bradykinin 1 receptor (B1R) (Homo sapiens, UniProt P46663)
Construct: expressed in transfected cells; host or cells: CHO K1 cells
Sequence (P46663 whole entry): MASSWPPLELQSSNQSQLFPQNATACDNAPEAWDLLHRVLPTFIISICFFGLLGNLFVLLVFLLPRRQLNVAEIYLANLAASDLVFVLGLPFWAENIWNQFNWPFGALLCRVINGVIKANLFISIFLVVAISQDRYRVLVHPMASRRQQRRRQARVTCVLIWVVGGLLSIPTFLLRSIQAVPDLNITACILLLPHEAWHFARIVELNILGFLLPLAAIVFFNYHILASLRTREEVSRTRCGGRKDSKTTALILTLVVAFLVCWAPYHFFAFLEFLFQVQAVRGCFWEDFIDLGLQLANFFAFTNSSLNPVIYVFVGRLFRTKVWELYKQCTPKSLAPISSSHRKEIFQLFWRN
PROTOCOL SUMMARY: Functional investigation on the human bradykinin 1 receptor (B1R), Ca2+ FLIPR assay in CHO K1 hB1R cells
Type: cell-based
CONDITION DESCRIPTION: CHO-K1, B1R antagonism human; test substance 10 μM; Ca2+ FLIPR, CHO K1 hB1R cells; read-out: B1R Ant. h [10 μM] % Inhibition
Label true (1) when inhibition at 10 µM is at or above 40%; otherwise label false (0).

-- ask Assess whether reported inhibition at 10 µM for COc1cc(C)c(S(=O)(=O)N2CCC(OCC(=O)NC3CCC(C(c4ccccc4)N4CCOCC4)CC3)C2)c(C)c1 (stereo not drawn) sits at 40% or higher.
-- reply true (1)

* * *

TARGET ENTITY: human μ opiate receptor (Homo sapiens)
Construct: purchased PerkinElmer Life Sciences, Zaventem, Belgium RB-HOM; host or cells: CHO-K1 cells (membrane preparation)
Sequence (P35372 whole entry): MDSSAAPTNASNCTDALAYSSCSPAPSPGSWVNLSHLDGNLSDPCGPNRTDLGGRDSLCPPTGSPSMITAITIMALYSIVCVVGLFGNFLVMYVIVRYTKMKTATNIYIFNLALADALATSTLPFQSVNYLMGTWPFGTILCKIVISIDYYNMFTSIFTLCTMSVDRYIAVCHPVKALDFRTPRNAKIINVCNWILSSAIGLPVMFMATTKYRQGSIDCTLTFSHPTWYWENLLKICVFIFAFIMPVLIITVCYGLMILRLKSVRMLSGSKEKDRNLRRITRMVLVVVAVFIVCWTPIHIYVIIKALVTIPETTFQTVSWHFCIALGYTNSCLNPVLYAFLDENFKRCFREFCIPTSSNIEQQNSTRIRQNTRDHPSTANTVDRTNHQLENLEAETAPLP
PROTOCOL SUMMARY: Affinity for the human μ opiate receptor ([3H]-naloxone displacement, CHO-K1 receptor membrane preparation, SPA)
Assay type: binding
CONDITION DESCRIPTION: test concentration of 1 μM
# cutoff 50% applies to μ (binding on the μ opioid receptor, % inhibition); >= gives label 1, < gives label 0

-- ask Has CN(C)C(c1ccc(Cl)cc1)C1CCC(CNC(=O)COCCN(C)S(=O)(=O)c2ccc(Cl)cc2)CC1 (centres unmarked) a recorded μ (binding on the μ opioid receptor, % inhibition) greater than or equal to 50%?
-- reply label 1

* * *

Here, each record is paired with measured inhibition at 10 µM data.
TARGET ENTITY: serotonin (5-HT) reuptake (Rattus norvegicus, UniProt P31652)
Construct: synaptosomes are freshly isolated from areas of the rat brain; from tissue; host or cells: rat brain synaptosomes (P2 fraction)
Sequence (P31652 whole entry): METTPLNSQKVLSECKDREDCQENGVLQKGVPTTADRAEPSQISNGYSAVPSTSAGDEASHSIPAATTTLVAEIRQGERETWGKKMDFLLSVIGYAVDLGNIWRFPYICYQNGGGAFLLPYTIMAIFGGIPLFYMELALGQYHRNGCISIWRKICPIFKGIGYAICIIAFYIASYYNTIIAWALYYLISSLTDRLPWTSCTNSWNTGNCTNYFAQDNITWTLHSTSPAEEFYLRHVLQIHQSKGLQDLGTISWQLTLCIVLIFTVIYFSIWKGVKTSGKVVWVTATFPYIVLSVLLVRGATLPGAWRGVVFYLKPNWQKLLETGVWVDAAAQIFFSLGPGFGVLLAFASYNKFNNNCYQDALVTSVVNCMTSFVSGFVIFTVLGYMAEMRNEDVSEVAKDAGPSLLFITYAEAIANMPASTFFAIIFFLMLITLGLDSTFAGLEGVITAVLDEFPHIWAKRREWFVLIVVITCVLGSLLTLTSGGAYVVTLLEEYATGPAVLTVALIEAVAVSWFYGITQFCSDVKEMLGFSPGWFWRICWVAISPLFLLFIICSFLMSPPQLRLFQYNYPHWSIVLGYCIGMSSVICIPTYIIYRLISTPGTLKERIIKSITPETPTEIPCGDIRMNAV
PROTOCOL SUMMARY: Inhibition of serotonin (5HT) reuptake in synaptosomes from rat brain
Type: biochemical
CONDITION DESCRIPTION: test concentration of 10 μM; read-out: 5-HT (inhibition of reuptake of serotonin, % inhibition)
Answer in %, number only, no unit symbol.

Sample records with inhibition at 10 µM:
MOLECULE | inhibition at 10 µM [%]
CN(C)C(c1cccs1)C1CCC(CCNC(=O)COCC2CCCN(S(=O)(=O)c3ccccc3)C2)CC1 (centres unmarked) | 97
CN(C)C(c1cccc(F)c1)C1CCC(CCNC(=O)COCC2CCCCN2S(=O)(=O)c2ccc(Cl)c(Cl)c2)CC1 (centres unmarked) | 96
COc1ccc(S(=O)(=O)N2CCC(OCC(=O)NCCC3CCC(C(c4cccs4)N(C)C)CC3)C2)cc1OC (centres unmarked) | 88

-- ask What inhibition at 10 µM value was documented for this molecule, CN(C)C(c1cccs1)C1CCC(CCNC(=O)COC2CCN(S(=O)(=O)c3ccc(Cl)cc3Cl)C2)CC1 (centres unmarked) ?
-- reply 94

-- ask Given CN(C)C(c1cccs1)C1CCC(CNC(=O)COCCN(C)S(=O)(=O)c2ccc(Cl)cc2Cl)CC1 (centres unmarked) , state its recorded inhibition at 10 µM.
-- reply 81

-- ask Param item = CN(C)C(c1cccs1)C1CCC(NC(=O)COC2CCCN(S(=O)(=O)c3ccccc3)C2)CC1 (centres unmarked) ; retrieve measured inhibition at 10 µM.
-- reply 91

-- ask Given the molecule COc1ccc(S(=O)(=O)N2CCCCC2COCC(=O)NCCC2CCC(C(c3cccs3)N(C)C)CC2)c(OC)c1 (centres unmarked) , what is its reported inhibition at 10 µM?
-- reply 90

-- ask Consider the molecule shown here: COc1ccc(S(=O)(=O)N2CCC(OCC(=O)NCC3CCC(C(c4cccs4)N(C)C)CC3)C2)cc1OC (centres unmarked) What is its recorded inhibition at 10 µM?
-- reply 82

-- ask So what does the record say about inhibition at 10 µM for COc1cc(C)c(S(=O)(=O)N(C)CCOCC(=O)NCC2CCC(C(c3ccccc3)N(C)C)CC2)c(C)c1 (centres unmarked) ?
-- reply 89

-- ask # input molecule: COc1cc(C)c(S(=O)(=O)N2CCC(CCOCC(=O)NCC3CCC(C(c4cccs4)N(C)C)CC3)CC2)c(C)c1C (centres unmarked) ; wanted: its inhibition at 10 µM
-- reply 91

-- ask What value of inhibition at 10 µM has been recorded for this entry: COc1ccc(S(=O)(=O)N2Cc3ccccc3CC2COCC(=O)NC2CCC(C(c3ccccc3)N(C)C)CC2)cc1 (centres unmarked)
-- reply 61

-- ask Could you share which inhibition at 10 µM value was measured for CN(C)C(c1cccc(F)c1)C1CCC(CNC(=O)COCC2CCCN2S(=O)(=O)c2ccc(Cl)c(Cl)c2)CC1 (centres unmarked) ?
-- reply 96

-- ask For COc1cc(C)c(S(=O)(=O)N(CCOCC(=O)NC2CCC(C(c3ccccc3)N(C)C)CC2)Cc2ccccc2)c(C)c1C (centres unmarked) , what is its reported inhibition at 10 µM?
-- reply 92

-- ask # inhibition at 10 µM lookup, item CN(C)C(c1cccs1)C1CCC(CCNC(=O)COCCN(C)S(=O)(=O)c2ccc(OC(F)(F)F)cc2)CC1 (centres unmarked)
-- reply 95

* * *

TARGET ENTITY: bradykinin 1 receptor (B1R) of the rat (Rattus norvegicus, UniProt P97583)
Construct: expressed in transfected cells; host or cells: CHO K1 cells
Sequence (P97583 1-337): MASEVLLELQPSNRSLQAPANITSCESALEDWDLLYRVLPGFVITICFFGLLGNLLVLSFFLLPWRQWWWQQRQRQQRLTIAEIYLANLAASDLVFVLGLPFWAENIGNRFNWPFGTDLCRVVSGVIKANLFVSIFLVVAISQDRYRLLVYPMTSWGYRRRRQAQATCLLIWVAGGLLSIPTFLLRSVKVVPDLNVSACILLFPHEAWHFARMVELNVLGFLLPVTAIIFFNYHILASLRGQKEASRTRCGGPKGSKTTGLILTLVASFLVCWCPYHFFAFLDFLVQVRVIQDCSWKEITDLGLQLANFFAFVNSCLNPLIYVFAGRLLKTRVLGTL
PROTOCOL SUMMARY: Functional investigation on the rat bradykinin 1 receptor (B1R), Ca2+ FLIPR assay in CHO K1 rB1R cells
Assay type: cell-based
CONDITION DESCRIPTION: CHO-K1, B1R antagonism rat; test substance 10 μM; Ca2+ FLIPR, CHO K1 rB1R cells; read-out: B1R Ant. r [10 μM] % Inhibition
EXPERIMENTAL ENDPOINT: inhibition at 10 µM (%)
Give just the numeric value; % need not be written.

MOLECULE | inhibition at 10 µM [%]
COc1ccc(S(=O)(=O)N2CCCC2COCC(=O)NCC2CCC(C(c3cccs3)N(C)C)CC2)cc1 (stereo not shown) | 24
CN(C)C(CCc1ccccc1)C1CCC(NC(=O)CNC(=O)c2nc(-c3ccc(C(C)(C)C)cc3)no2)CC1 (stereo not shown) | -4
CN(C)C(c1cccc(F)c1)C1CCC(CNC(=O)CCNC(=O)c2nc(-c3cccs3)no2)CC1 (stereo not shown) | -2

Next up:
-- ask Provide value of inhibition at 10 µM for this record tested with bradykinin 1 receptor (B1R) of the rat (Rattus norvegicus, UniProt P97583): O=C(COC1CCCN(S(=O)(=O)c2c(Cl)cc(Cl)cc2Cl)C1)NC1CCC(C(c2ccccc2)N2CCCC2)CC1 (stereo not shown)
-- reply 87

Where do the numbers come from? From patent US8106055B2.
